biological target: rCB1 receptor (Rattus norvegicus); experiment: rCB1 radioligand binding assay, [3H]CP-55,940 competition
Sequence (P20272 whole entry): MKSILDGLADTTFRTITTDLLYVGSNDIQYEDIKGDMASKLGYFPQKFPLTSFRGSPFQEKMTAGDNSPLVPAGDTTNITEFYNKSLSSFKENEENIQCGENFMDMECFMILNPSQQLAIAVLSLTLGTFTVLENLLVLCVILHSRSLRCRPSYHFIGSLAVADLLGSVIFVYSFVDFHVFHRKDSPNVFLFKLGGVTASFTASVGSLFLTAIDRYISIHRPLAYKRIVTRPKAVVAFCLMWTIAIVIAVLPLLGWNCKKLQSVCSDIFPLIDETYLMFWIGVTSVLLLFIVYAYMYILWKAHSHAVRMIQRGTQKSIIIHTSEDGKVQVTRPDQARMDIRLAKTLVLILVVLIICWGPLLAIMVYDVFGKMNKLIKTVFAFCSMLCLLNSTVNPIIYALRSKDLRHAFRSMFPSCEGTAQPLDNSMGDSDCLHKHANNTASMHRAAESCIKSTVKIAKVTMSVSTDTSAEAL
METRIC NAME: Ki (nM)
Answers are plain numbers, in nM.

molecule="C[C@H](/C=C\\C/C=C\\C/C=C\\CCCC(=O)N[C@H](C)CO)/C=C\\CCCCCF [Compound 21]" target_entity="rCB1 receptor (Rattus norvegicus)" metric_name=Ki result_number=4.2

Look up Ki for the entries below, preserving their order.
1. C[C@H](/C=C\C/C=C\C/C=C\CCCC(=O)N[C@H](C)CO)/C=C\CCCCC(F)(F)F [Compound 12]
2. C[C@H](/C=C\C/C=C\C/C=C\CCCC(=O)N[C@H](C)CO)/C=C\CCCCCBr [Compound 15]

1: 0.7; 2: 1.1

Look up Ki for the entries below, preserving their order.
1. C[C@H](/C=C\C/C=C\C/C=C\CCCC(=O)N[C@H](C)CO)/C=C\CCCCCO[N+](=O)[O-] [Compound 16b]
2. C[C@H](/C=C\C/C=C\C/C=C\CCCC(=O)N[C@H](C)CO)/C=C\CCCCCC#N [Compound 16a]

1. 1.7
2. 1.4
